Just for reference, patent US20230058189A1 is where these values come from.

- PROTOCOL SUMMARY: Caco-2 cell permeability assay
- Type: in vitro ADME
- CONDITIONS: human, pH 7.4; Caco-2, Papp (B-A)/Papp (A-B); approximate values
QUANTITY: efflux ratio at 2 h, 10 µM

A = CCn1cc(C(=O)O)c(=O)c2c(N)c(F)c(N[C@@H]3C[C@H]3c3ccccc3)cc21 (single isomer, unassigned) [Compound I-20]
B = CCn1cc(C(=O)O)c(=O)c2c(N)c(F)c(NC3CC(N[C@@H]4C[C@H]4c4ccccc4)C3)cc21 (relative stereo) [Compound I-70]
C = CCn1cc(C(=O)O)c(=O)c2c(N)c(F)c(NC3CCCC3)cc21 [Compound I-9]
Query block: Sort these molecules on efflux ratio at 2 h, 10 µM so the largest reading comes first. // rank by listing labels in the order requested
Result block: B, C, A
(B: 1.2, C: 0.56, A: 0.29)
